# protocol.notes: Unbound fraction in plasma (unknown origin) at pH 7.63 after 6 hrs by equilibrium dialysis method in presence of 5% CO2
# Assay type: ADME, cell-free

# compound, fraction unbound at 6 h
measured = [
    ("NC(=O)N1c2ccccc2C=Cc2ccccc21 [CARBAMAZEPINE]", 0.288),
    ("CCN(CC)C(=O)C1(c2ccccc2)CC1CN (stereo unspecified)", 0.777),
    ("CN1CCN(C2=Nc3cc(Cl)ccc3Nc3ccccc32)CC1", 0.058),
    ("CNCCC(Oc1ccc(C(F)(F)F)cc1)c1ccccc1 (stereo unspecified)", 0.063),
    ("N[C@@H]1C[C@H]1c1ccccc1.N[C@H]1C[C@@H]1c1ccccc1 (racemic)", 0.53),
    ("Cc1ncc2n1-c1ccc(Cl)cc1C(c1ccccc1F)=NC2", 0.041),
    ("O=C(CCCN1CCC(O)(c2ccc(Cl)cc2)CC1)c1ccc(F)cc1", 0.164),
    ("Cc1nc2n(c(=O)c1CCN1CCC(c3noc4cc(F)ccc34)CC1)CCCC2", 0.222),
    ("CN1CCN2c3ncccc3Cc3ccccc3C2C1 (stereo unspecified)", 0.266),
    ("CCn1nc(C(=O)O)c(=O)c2cc3c(cc21)OCO3", 0.23),
    ("CC(CN(C)C)CN1c2ccccc2CCc2ccccc21 (stereo unspecified)", 0.052),
    ("CC(C)NCC(O)COc1cccc2ccccc12 (stereo unspecified)", 0.213),
    ("Fc1ccc([C@@H]2CCNC[C@H]2COc2ccc3c(c2)OCO3)cc1", 0.089),
    ("COc1ccc([C@@H]2Sc3ccccc3N(CCN(C)C)C(=O)[C@@H]2OC(C)=O)cc1", 0.35),
    ("CN(C)CCCN1c2ccccc2CCc2ccccc21", 0.172),
    ("COC(=O)C1=C(C)NC(C)=C(C(=O)OCCN(C)Cc2ccccc2)C1c1cccc([N+](=O)[O-])c1 (stereo unspecified)", 0.008),
]
